System: Substrate oligonucleotide SEQ ID NO:30
Test: RNase testing of commercially obtained reagents, visual detection
Format: biochemical
Design: key: +++ = maximum intensity; ++ = moderate intensity; + = faint but above background; − = negative (identical to background)
Details: reagent diluted 1:10 with Assay Buffer, 50 pmoles Substrate SEQ ID NO:30, 60 minutes at 37° C., UV
measuredParameter: Assay Results (RNase activity in reagent, relative signal intensity)

>  <molecule>
Bam HI: commercial enzyme from New England Biolabs, sold as RNase-free (protein, UniProt P23940 1-213, looked up) Type II restriction enzyme …: MEVEKEFITDEAKELLSKDKLIQQAYNEVKTSICSPIWPATSKTFTINNTEKNCNGVVPIKELCYTLLEDTYNWYREKPLDILKLEKKKGGPIDVYKEFIENSELKRVGMEFETGNISSAHRSMNKLLLGLKHGEIDLAIILMPIKQLAYYLTDRVTNFEELEPYFELTEGQPFIFIGFNAEAYNSNVPLIPKGSDGMSKRSIKKWKDKVENK

>  <result>
−

$$$$
>  <molecule>
RNase T1: commercial enzyme reagent from Ambion, tested for RNase activity (protein, UniProt P00651 27-130, looked up) Guanyl-specific ribonuclease …: ACDYTCGSNCYSSSDVSTAQAAGYQLHEDGETVGSNSYPHKYNNYEGFDFSVSSPYYEWPILSSGDVYSGGSPGADRVVFNENNQLAGVITHTGASGNNFVECT

>  <result>
+++

$$$$

The measurements presented in this section are drawn from patent US7276337B2.
